Numbers sourced from patent US9963467B2.

Experiment: Monomer content of pH adjusted aqueous solutions (LC-UV)
Format: physicochemical
Details: 1 mg/mL aqueous salt solution, pH adjusted to 7.6 to 8, LC-UV
PROPERTY: % Monomer in 1 mg/mL salt solution (%)

                                    molecule  unit_symbol  value_reported
 0  CSCC(=O)N[C@@H]1Cc2ccc(F)c(C(=O)O)c2OB1O [Compound 31]            %            99.7
 1  O=C(Cc1cccs1)N[C@H]1Cc2ccc(F)c(C(=O)O)c2OB1O [Compound 30]            %            94.6
 2  CSCC(=O)N[C@H]1Cc2ccc(SCC3CCNCC3)c(C(=O)O)c2OB1O [Compound 24]            %            98.3
 3  COc1ccc2c(c1C(=O)O)OB(O)[C@@H](NC(=O)Cc1cccs1)C2 [Compound 29]            %            99.4
 4  CSCC(=O)N[C@H]1Cc2ccc(F)c(C(=O)O)c2OB1O [Compound 1]            %            98.0
 5  CSCC(=O)N[C@H]1Cc2ccc(SC)c(C(=O)O)c2OB1O [Compound 10]            %            87.5
 6  CSCC(=O)N[C@H]1Cc2ccc(SC3CNC3)c(C(=O)O)c2OB1O [Compound 11]            %            88.0
 7  CSCC(=O)N[C@H]1Cc2ccc(Sc3nnc(N)s3)c(C(=O)O)c2OB1O [Compound 21]            %            98.1
 8  COc1ccc2c(c1C(=O)O)OB(O)[C@@H](NC(=O)CSC)C2 [Compound 12]            %            98.2
 9  NC(=O)CC(=O)N[C@H]1Cc2ccc(F)c(C(=O)O)c2OB1O [Compound 5]            %            98.5
10  O=C(CSC(F)F)N[C@H]1Cc2ccc(F)c(C(=O)O)c2OB1O [Compound 3]            %            99.8
11  CNC(=O)CC(=O)N[C@H]1Cc2ccc(F)c(C(=O)O)c2OB1O [Compound 7]            %            97.1
12  CSCC(=O)N[C@H]1Cc2c(F)cc(F)c(C(=O)O)c2OB1O [Compound 32]            %            95.8

###

Target: OXA-48 (Klebsiella pneumoniae, UniProt Q6XEC0)
Sequence (Q6XEC0 23-265, looked up, species assumed): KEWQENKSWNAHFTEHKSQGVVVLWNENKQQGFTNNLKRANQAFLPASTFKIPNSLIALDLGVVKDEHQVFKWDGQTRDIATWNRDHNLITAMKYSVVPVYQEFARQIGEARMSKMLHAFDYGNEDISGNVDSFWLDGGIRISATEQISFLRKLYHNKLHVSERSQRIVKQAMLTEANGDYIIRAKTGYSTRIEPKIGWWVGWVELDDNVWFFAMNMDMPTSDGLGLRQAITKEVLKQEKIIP
Assay: Ki, nitrocefin cleavage by purified enzyme, OXA-48
Conditions: nitrocefin reporter substrate; read-out: Ki (OXA-48, NCF)
PROPERTY: Ki

>>> print(df.to_string())
                                   molecule  value_reported
0  COc1ccc2c(c1C(=O)O)OB(O)[C@@H](NC(=O)CC(N)=O)C2          < 1 nM
1  CSCC(=O)N[C@H]1Cc2cc(F)c(F)c(C(=O)O)c2OB1O          < 1 nM
2  CSCC(=O)N[C@H]1Cc2ccc(SCCO)c(C(=O)O)c2OB1O          < 1 nM
3  COc1ccc2c(c1C(=O)O)OB(O)[C@@H](NC(=O)Cc1cccs1)C2          < 1 nM
4  COc1ccc2c(c1C(=O)O)OB(O)[C@@H](NC(=O)CSC1CNC1)C2      1 to 10 nM
5  CSCC(=O)N[C@H]1Cc2c(F)cc(F)c(C(=O)O)c2OB1O      1 to 10 nM
6  COc1ccc2c(c1C(=O)O)OB(O)[C@@H](NC(=O)CSC(F)F)C2          < 1 nM
7  O=CN[C@H]1Cc2cccc(C(=O)O)c2OB1O [F, reference compound]          < 1 nM
8  COc1ccc2c(c1C(=O)O)OB(O)[C@@H](NC(=O)CSC)C2          < 1 nM

###

Molecular target: P99 (Enterobacter cloacae, UniProt P05364)
Sequence (P05364 21-381): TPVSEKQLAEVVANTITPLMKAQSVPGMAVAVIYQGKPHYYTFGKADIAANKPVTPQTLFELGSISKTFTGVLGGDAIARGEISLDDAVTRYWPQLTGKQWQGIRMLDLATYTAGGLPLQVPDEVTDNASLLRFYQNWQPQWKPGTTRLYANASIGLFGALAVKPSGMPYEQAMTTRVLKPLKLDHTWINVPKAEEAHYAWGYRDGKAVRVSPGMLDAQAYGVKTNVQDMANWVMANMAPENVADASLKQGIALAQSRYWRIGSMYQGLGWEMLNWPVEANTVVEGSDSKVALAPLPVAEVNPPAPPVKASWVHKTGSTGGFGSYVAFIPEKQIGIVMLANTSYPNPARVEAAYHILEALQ
Assay: Ki, nitrocefin cleavage by purified enzyme, P99
Format: biochemical
Settings: nitrocefin reporter substrate; read-out: Ki (P99, NCF)
Experimental: Purified enzymes were mixed with various concentrations of inhibitors in reaction buffer and incubated for 10 min at room temperature. Nitrocefin was added and substrate cleavage profiles were recorded at 490 nm every 10 sec for 10 min.
Item-by-item account of Ki
PROPERTY: Ki

In [3]: df
Out[3]:
                                    compound                                       tgt  value_reported
 0  CSCC(=O)N[C@H]1Cc2ccc(SCCO)c(C(=O)O)c2OB1O  P99 (Enterobacter cloacae, UniProt P05364)         > 10 nM
 1   CSCC(=O)N[C@H]1Cc2ccc(O)c(C(=O)O)c2OB1O  P99 (Enterobacter cloacae, UniProt P05364)      1 to 10 nM
 2  CSCC(=O)N[C@H]1Cc2ccc(Sc3nnc(N)s3)c(C(=O)O)c2OB1O  P99 (Enterobacter cloacae, UniProt P05364)         > 10 nM
 3  COc1ccc2c(c1C(=O)O)OB(O)[C@@H](NC(=O)CSC1CNC1)C2  P99 (Enterobacter cloacae, UniProt P05364)         > 10 nM
 4  CSCC(=O)N[C@H]1Cc2ccc(SCC(N)=O)c(C(=O)O)c2OB1O  P99 (Enterobacter cloacae, UniProt P05364)         > 10 nM
 5  CSCC(=O)N[C@H]1Cc2ccc(SC)c(C(=O)O)c2OB1O  P99 (Enterobacter cloacae, UniProt P05364)         > 10 nM
 6  CSCC(=O)N[C@H]1Cc2ccc(SC3CNC3)c(C(=O)O)c2OB1O  P99 (Enterobacter cloacae, UniProt P05364)         > 10 nM
 7   CSCC(=O)N[C@H]1Cc2ccc(F)c(C(=O)O)c2OB1O  P99 (Enterobacter cloacae, UniProt P05364)         > 10 nM
 8  CSCC(=O)N[C@H]1Cc2ccc(OCCO)c(C(=O)O)c2OB1O  P99 (Enterobacter cloacae, UniProt P05364)         > 10 nM
 9  CNC(=O)CC(=O)N[C@H]1Cc2ccc(F)c(C(=O)O)c2OB1O  P99 (Enterobacter cloacae, UniProt P05364)         > 10 nM
10  O=C(Cc1cccs1)N[C@H]1Cc2ccc(F)c(C(=O)O)c2OB1O  P99 (Enterobacter cloacae, UniProt P05364)      1 to 10 nM
11  CS(=O)(=O)CC(=O)N[C@H]1Cc2ccc(F)c(C(=O)O)c2OB1O  P99 (Enterobacter cloacae, UniProt P05364)         > 10 nM
12  COc1ccc2c(c1C(=O)O)OB(O)[C@@H](NC(=O)CSC)C2  P99 (Enterobacter cloacae, UniProt P05364)         > 10 nM
13  CSCC(=O)N[C@H]1Cc2ccc(OCC(=O)O)c(C(=O)O)c2OB1O  P99 (Enterobacter cloacae, UniProt P05364)         > 10 nM
14  COc1ccc2c(c1C(=O)O)OB(O)[C@@H](NC(=O)CSC(F)F)C2  P99 (Enterobacter cloacae, UniProt P05364)      1 to 10 nM
15  Nc1nnc(C(=O)N[C@H]2Cc3ccc(F)c(C(=O)O)c3OB2O)s1  P99 (Enterobacter cloacae, UniProt P05364)         > 10 nM
16  CSCC(=O)N[C@@H]1Cc2ccc(F)c(C(=O)O)c2OB1O  P99 (Enterobacter cloacae, UniProt P05364)         > 10 nM
17  O=C(O)CC(=O)N[C@H]1Cc2cccc(C(=O)O)c2OB1O [D, reference compound]  P99 (Enterobacter cloacae, UniProt P05364)         > 10 nM
18  NC(=O)CC(=O)N[C@H]1Cc2ccc(F)c(C(=O)O)c2OB1O  P99 (Enterobacter cloacae, UniProt P05364)         > 10 nM

###

Experiment: Serum stability of prodrugs, rat serum
Format: in vitro ADME
Details: prodrug, theoretical initial conc. 20 ug/mL
Method: Prodrug strategy is one of the ways to achieve or increase oral bioavailability for therapeutic drugs. […] After a prodrug molecule is absorbed into systemic circulation, it should be hydrolyzed in the blood in order to release the active form. Hydrolysis of several prodrugs by rat and human serum were evaluated. For all stability experiments the test compounds were treated with rat or human serum in Eppendorf tubes. […]
PROPERTY: Conc. at t = 3 hr (ng/mL)

                               entry_smiles           property  value_reported
0  CSCC(=O)N[C@H]1Cc2ccc(SC)c(C(=O)OCOC(=O)C(C)C)c2OB1O  Conc. at t = 3 hr            5210
1  CCOC(=O)OCOC(=O)c1c(OC)ccc2c1OB(O)[C@@H](NC(=O)CSC)C2  Conc. at t = 3 hr               0
2  COc1ccc2c(c1C(=O)OCOC(=O)C(C)C)OB(O)[C@@H](NC(=O)CSC)C2  Conc. at t = 3 hr            5580
3  CSCC(=O)N[C@H]1Cc2cc(F)c(F)c(C(=O)OCOC(=O)C(C)C)c2OB1O  Conc. at t = 3 hr             420
